Each recorded value in this set is attributed to the NTF2 design screens of Basanta et al. (2020).

The following sequences are shown together with reported protease stability score values.
Measurement notes: protease stability score; higher = more stable; yeast display proteolysis, trypsin and chymotrypsin
Form field (numeric): enter value without unit.

Worked cases, answers included:
SEDEEIAKEASEVFSDVLLTGNEDLFKEMIDPNVRVIVDGQDHIGRERALEFLIIWLERRGVEFKRVRVTRHRVIDGRVQMHYEVDSVVNGRRTNDSMELHSDKVNGRWIIRIIKFR ... 2.38
DEEEQHSRELAEIYFEIWETGDFHTHKRMMDPNAKLDYNGQTIHGREHIVEYLRHLWERVKGVRFHLDSVHLQGDWLHIRGTLQVDGQHHKVDIHVQIVDGVLHEEHIRVR ... 1.53

Shifting focus to the sequence that follows.
The recorded protease stability score for `DEEREHSEEALLLLLHLIMTGDEEELIKNVDPNARITQGDKEFHGREVVIKHLFELMHRFGVKHFTVDHVEIFNGRLFIRFTLHFNGRKIDEHLILVKINGRWLLKSMEIK` is 2.21

###

Measurement notes: protease stability score; higher = more stable; yeast display proteolysis, trypsin and chymotrypsin
Test readout: protease stability score

Measured protease stability score of `DEEKELADYISHLLVENLKTGDWHSLRRLIDPNARLEYGDKEHHGWKEIYESKRHLDEELGVKHVNINIHRINYQGEKVEIDGEVRIHFNGRTENRKVNIELRIFNGRIKEVIVDIR` : 1.17

Record `TERDMFIETYIQIFIEHVRTGDEEALARLADPNVRIRVGDKHLHGWHELRRFFHEWRVKDLDFRDYRYYDGRVEIRGFERVEFNGQERDMEVIFHFVKINGRWYLEETEIR` . Reported protease stability score: 2.32

# protease stability score (sequence: `DEKDEKLLRFAHEIIELFLTGNEERFTELLDPRVKLDIDGKNAVGREETQRLWEEILHRIDVMHIRIHRYKAQGNKVILDGLIHIEVGDKNEERHSRLHIHVYDGKIKSIRLEYH` ) is 2.08

For `SEDEELRQIAVEFILHILWTGDEELLYKYFDPHVRSDINGRRTHGRENMLRAIREMMRKIKGIQLTSLHITDIEIIGDYLNIDGHFRLNYDGKETDLSLKIDIFKINGKWSIHAISYR` the sequence record lists protease stability score as 2.08

get_value(item= `TELEHKAIEVVEAVFRNLHTGDESLLQELFDPNTKSLIDGVSVVGMHEIYKTIKHLRIEFESIEVHHITNVNGVLLLDVTLRERYRINGVEDEKQTRVHIIVRKIDGRWHLEHVRFH` , readout=protease stability score) returns 1.48

Record summary for `DHEEKHMIKIARLILLLWFTGDEDTFSRLADPNVRVIIIWNGKEIHSHGMERFSEDRKRHEEEMRLKDFRIDEVRAVGDKIHMRVTIHLIQGDKEREIDLEIRIVLVNGKLKTIEFIFH` : reported protease stability score = 2.63

So, `LEFEEHLHRWVNFYLNVHRTGDEEHIEKLADPDMRIEVGDKELHGRERAYEFWRRYLEEARLHDMKIRSVELVGDKIILDTEIHSIVGDKHIRERLEIILTKINGRWMLKSMRVQ` ? Its protease stability score was 1.45

protease stability score for `SEHEEMEQDAREIMERVFHTGDETTMRKLADPHVKFHIGDKLHVGRELFDNFVRYVLEKFKNIRVETEEVRDVNGVVIQDLDENYNGQRYKVRWVMVKINGKWTIERVEIR` is 0.599

What the record says about `DEEHKETEDIAKYFWERFLTGDWKTFKEFADPHVKIDVDGVEHIGREEASKLMRDWDRRFKNVRHTERHHDVIDGKFELHGESNINGVHIKLDVRIVIVDGRLHSVHVEIDRR` : protease stability score is 1.26

`SEDEKLMEHAFRQLLRDLETGDWHSFHHLADPTVKLDIDGREIHGRESATRVLEELWRKFGVTRVESELHSMHSQGDKLRVESKMNFNGVEYSVIIIMIKIDGRWLLHSENHK` yielded protease stability score of 1.56

protease stability score reported for this sequence `DDENKFWKEFMDIWVRSLETGNEEELAKLIDPHARLHVNGVENHGREIVLKWFHHHLKHAGVDHRTFHDMRVFDGVNFIDGTLHVNGVTREIRLKVYVVNGVVESEEVRIH` : 1.03

###

# protease stability score annotations
Measurement notes: protease stability score; higher = more stable; yeast display proteolysis, trypsin and chymotrypsin;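 note: relative to predicted unfolded state with 0 unfolded-like and 1 meaning tenfold more protease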
Respond numerically, and do not add a unit to the figure.

DEREKRWRKLHQDILEAIWTGDEETFLRLADPDMRFYLIVNGRTVDLHGMELASVVLHERRKRFKNATWHLKSERVQGNYSELNEELIVGDKTYDIRINLVHIDGKLHSVVIEDI ... 1.01
SEAEEFARRVIELWIRSILTGNPDMSEKLADPNYKVHFNGVNIVGMEEFYRHLEEWRIHIDDFRIRDVRVQGDKMINDTEERITIKYGDKEIHLDVRLEIIIRKIDGRWHMHSIILH ... 2.2
DEEQNHFFESIKELTHSWRTGDEERVTKLADPNVRLEINGRDIVGMERFSKLMIELRVHDLKIHRIRVVNGKVESDIEMHIHQGDKHSVTETHIFARKVDGKWILESIRIG ... 1.07
REEEEEIEEALRQWLTLHETGDFKYLEKLFDPNVKQDVGDKELHGRELFSKFEHELAERIKGVRFRYHYEEIHIFDGRVVLRLDGIWEIGDKSMRVTLIVIMNKFDGRWKLESLHIEYR ... 1.24

Now, please, on to the next sequence.
The sequence listed as `DDERRHTEKVLELWTRFLYTGDEHRMSELLDPNTQLRVGDKDLHGWHLFVHFISELIRKLGVDHLEVELKHADIINGRAELHVKFHFHTENHHTTINIIFFYEKIDGVWLIKSIEIK` shows protease stability score equal to 2.04

###

Measurement notes: protease stability score; higher = more stable; yeast display proteolysis, trypsin and chymotrypsin;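 note: relative to predicted unfolded state with 0 unfolded-like and 1 meaning tenfold more protease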
Measured protease stability score accompanies every entry in the list below.

Here are 2 sequences together with their reported answers.
QEEEEFVRKFVHEVIRALMTGDEHRMHELLDPHVISSRHIGDKHVHYHGREEVLRHLHEWLTHLRIKSLEIRSHKAFDGRMIVHGTLFGQQGDKDVEFEVIIDLEVINGRIKHFHVELR ... 1.32
DEEDREKDDLLRRFITAIYTGDERAIKEYLDPHVRTVFNGQEKHGREEVTTLVWQIMRELGIKVIRTHDEREQGNKVELHLELFVGNKRLEINVFAEKVDGKWILRQFIIKVD ... 1.2

Now for a further sequence.
Measured protease stability score, `SEREELVRYAIELMEEVMRTGDERLIESMADPNTRVVVNGVELHGRNHLLRVWSEWRTRDMREREVHVYDGRIEMHGTSDITIGDKHVITDTRHIAEKVDGRWILRSVEFR` : 0.405

###

Quick list: protease stability score per entry.
Measurement notes: protease stability score; higher = more stable; yeast display proteolysis, trypsin and chymotrypsin;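 note: relative to predicted unfolded state with 0 unfolded-like and 1 meaning tenfold more protease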

Here's what some known entries look like.
DHEEKLSEDISRFLLELYLTGDPERLAKNADPNTKLIIDINGRHEDIHGREYIYKWSLDWFRKAGVTRVEFDLRSMDVQGEKAVIHGVNRVGDKDRHMTEIWIVVNGKLKEVRVKLE ... 1.28
TEEERIMLEAIDLLIELWRTGDWKLLDEMVDPRVRIEIGEFTHHGREEYLRILLEEVRRADHRRYHIDHLEIINGRVILNGFIDLTFNGVHLRIREHLVAEKVNGRWLLREIRQR ... 1.72
SEEEKFAERFIRLFMEALETGDERVLEELLDPNVRVEVNGREYHGRDVFTRLVREWRIDHLDTHTHRIDSQGDKVNADTRVRFHHKVGDKVHDTEMHVILHSEKFNGRWHMTEIIIR ... 1.34
DEEEESTKRVAKVLHHTNRTGDEKTMNEMLDPNAKQDYNGRINIGWERILEVLREWKDRLGLTRIELHIHDFDIQGDKARIDTTVDFNGVEFKLIIYVRKIDGKWVLERIEVR ... 0.368

Okay, next one:
The sequence `EEEEKEADEEVRIMIKSLYTGDEDTVHEMADPNALVKVGDKTIHGMHLFLHTWIRRMEKHGIRVEVRLDDLEIQGEKIHIHLTLIYRFNGKDYPIEFEIHVNKINGQWRVSEIIEI` showed protease stability score equal to 1.25

###

protease stability score values for the sequences below.
Measurement notes: protease stability score; higher = more stable; yeast display proteolysis, trypsin and chymotrypsin;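 note: relative to predicted unfolded state with 0 unfolded-like and 1 meaning tenfold more protease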
# print the numeric value only

Examples with their reported protease stability score follow.
DERDEEAHRMTETFYELQRTGDEESTHHLADPHVKFEYLIGDKYFEIHGWDRVLEFWLRYKGVREEIDHRRVRVINGKIHIELIVKIRIGDKTHVHRIELNIEKVDGRWILREVRVEVK ... 1
SEDEEEATHLSRVLIELLKTGDEEMLEHLADPNDRNDFNGRVKHGRELVTKMLRKLMTDLGIDHIEHVTLRRLEVQGEWVKFNFEIIGRVNGRELSFRVRFIMEKVDGKWRLSERHTI ... 1.71

Now, please, on to the next sequence.
Sample `RDVEHLLEKWMEDHMEALHTGDEDRIHELLDPHVRVHIDGVNLHGRERAVEFMVRSLRELGIKHIKLDVEDVEVQGEKVIIDLRVNLDYDGREHRDKEIIILLKIDGKWVIEEVRRG` ; protease stability score observed: 1.07
